The following are reported log10 IC50 results, target or system Tyrosyl-DNA phosphodiesterase 1 (Homo sapiens).
Could you please treat all values as log10 of IC50 in nM?

For orientation, consider the following solved cases.
                        structure_as_smiles  meas_value
0  CC(=O)C1=C(O)C=C2Oc3c(-c4csc(C)n4)c(O)c(C)c(O)c3[C@@]2(C)C1=O        3.61
1  CNc1nc(-c2c(O)c(C)c(O)c3c2OC2=CC(O)=C(C(C)=O)C(=O)[C@@]23C)cs1        3.77
2  CC(=O)C1=C(O)C=C2Oc3c(-c4csc(N/N=C/c5ccc(Cl)cc5)n4)c(O)c(C)c(O)c3[C@@]2(C)C1=O        1.83
3  CC(=O)C1=C(O)C=C2Oc3c(-c4csc(N/N=C/c5ccc([N+](=O)[O-])cc5)n4)c(O)c(C)c(O)c3[C@@]2(C)C1=O        1.54
4  CC(=O)C1=C(O)C=C2Oc3c(-c4csc(-c5ccccc5)n4)c(O)c(C)c(O)c3[C@@]2(C)C1=O        3.05
5  CC(=O)C1=C(O)C=C2Oc3c(-c4csc(-c5cccnc5)n4)c(O)c(C)c(O)c3[C@@]2(C)C1=O        3.08
6  C=CCNc1nc(-c2c(O)c(C)c(O)c3c2OC2=CC(O)=C(C(C)=O)C(=O)[C@@]23C)cs1        3.10
7  CC(=O)C1=C(O)C=C2Oc3c(-c4csc(N/N=C/c5ccc(F)cc5)n4)c(O)c(C)c(O)c3[C@@]2(C)C1=O        2.18

Recall the recorded log10 IC50 for `CC(=O)C1=C(O)C=C2Oc3c(-c4csc(N/N=C/c5ccccc5)n4)c(O)c(C)c(O)c3[C@@]2(C)C1=O` with Tyrosyl-DNA phosphodiesterase 1 (Homo sapiens) and state it.
2.24

Recall the recorded log10 IC50 for `COc1ccc(/C=N/Nc2nc(-c3c(O)c(C)c(O)c4c3OC3=CC(O)=C(C(C)=O)C(=O)[C@@]34C)cs2)cc1` with Tyrosyl-DNA phosphodiesterase 1 (Homo sapiens) and state it.
2.20

Recall the recorded log10 IC50 for `COc1cc(/C=N/Nc2nc(-c3c(O)c(C)c(O)c4c3OC3=CC(O)=C(C(C)=O)C(=O)[C@@]34C)cs2)ccc1O` with Tyrosyl-DNA phosphodiesterase 1 (Homo sapiens) and state it.
2.28

Recall the recorded log10 IC50 for `CC(=O)C1=C(O)C=C2Oc3c(-c4csc(Nc5ccccc5)n4)c(O)c(C)c(O)c3[C@@]2(C)C1=O` with Tyrosyl-DNA phosphodiesterase 1 (Homo sapiens) and state it.
2.79

###

assay: Acute toxicity in ig dosed specific pathogen free CD-1 mouse; assay type: organism-based; settings: in vivo, po
PROPERTY: LD50

Find the recorded LD50 belonging to `CC(=O)C1=C(O)C=C2Oc3c(-c4csc(N/N=C/c5ccc(Br)cc5)n4)c(O)c(C)c(O)c3[C@@]2(C)C1=O` and report it.
> 5000 mg/kg

###

test: Cytotoxicity against mouse LLTC cells after 3 days by [3H]-thymidine incorporation assay; type: cell-based
PROPERTY: CC50 at 72 h (nM)
The response must be a number in nM with no trailing unit.

Find the recorded CC50 at 72 h belonging to `CC(=O)C1=C(O)C=C2Oc3c(-c4csc(N/N=C/c5ccc(Br)cc5)n4)c(O)c(C)c(O)c3[C@@]2(C)C1=O` and report it.
1670

###

The following are reported IC50 results, target or system Tyrosyl-DNA phosphodiesterase 1 (Homo sapiens).
Output should be the measured figure followed by the unit it is expressed in.

For orientation, consider the following solved cases.
>>> print(df.to_string())
                                   molecule  meas_value
0  CC(=O)C1=C(O)C=C2Oc3c(-c4csc(N)n4)c(O)c(C)c(O)c3[C@@]2(C)C1=O     3800 nM
1  CC(C)=CCCC(C)CCNC1C2CC3CC(C2)CC1C3 (centres undefined)     3500 nM
2  CC(=O)C1=C(O)C=C2Oc3c(-c4csc(N/N=C/c5cccc([N+](=O)[O-])c5)n4)c(O)c(C)c(O)c3[C@@]2(C)C1=O       86 nM

# evaluate next
Recall the recorded IC50 for `CC(=O)C1=C(O)C=C2Oc3c(-c4csc(N/N=C/c5ccc(O)cc5)n4)c(O)c(C)c(O)c3[C@@]2(C)C1=O` with Tyrosyl-DNA phosphodiesterase 1 (Homo sapiens) and state it.
457 nM

###

test: Cytotoxicity against human MCF7 cells after 3 days by [3H]-thymidine incorporation assay; format: cell-based
PROPERTY: CC50 at 72 h (µM)
The response must be a number in µM with no trailing unit.

Find the recorded CC50 at 72 h belonging to `CC(=O)C1=C(O)C=C2Oc3c(-c4csc(N/N=C/c5ccc(Br)cc5)n4)c(O)c(C)c(O)c3[C@@]2(C)C1=O` and report it.
1.69

###

Collected IC50 values appear next to each entry.
target: Tyrosyl-DNA phosphodiesterase 1 (Homo sapiens); assay: Inhibition of Tdp1 (unknown origin)
The response must be a number in nM with no trailing unit.

>>> df
                structure_as_smiles                     target_or_test_system  meas_value
0  Cc1ccc(C)n1-c1ccc(Cl)c(C(=O)O)c1  Tyrosyl-DNA phosphodiesterase 1 (Homo sapiens)         110

# evaluate next
Find the recorded IC50 belonging to `CC(=O)C1=C(O)C=C2Oc3c(C(=O)CSC#N)c(O)c(C)c(O)c3[C@@]2(C)C1=O` and report it.
1010

###

target: Tyrosyl-DNA phosphodiesterase 1 (Homo sapiens, UniProt Q9NUW8)
Sequence (Q9NUW8 whole entry): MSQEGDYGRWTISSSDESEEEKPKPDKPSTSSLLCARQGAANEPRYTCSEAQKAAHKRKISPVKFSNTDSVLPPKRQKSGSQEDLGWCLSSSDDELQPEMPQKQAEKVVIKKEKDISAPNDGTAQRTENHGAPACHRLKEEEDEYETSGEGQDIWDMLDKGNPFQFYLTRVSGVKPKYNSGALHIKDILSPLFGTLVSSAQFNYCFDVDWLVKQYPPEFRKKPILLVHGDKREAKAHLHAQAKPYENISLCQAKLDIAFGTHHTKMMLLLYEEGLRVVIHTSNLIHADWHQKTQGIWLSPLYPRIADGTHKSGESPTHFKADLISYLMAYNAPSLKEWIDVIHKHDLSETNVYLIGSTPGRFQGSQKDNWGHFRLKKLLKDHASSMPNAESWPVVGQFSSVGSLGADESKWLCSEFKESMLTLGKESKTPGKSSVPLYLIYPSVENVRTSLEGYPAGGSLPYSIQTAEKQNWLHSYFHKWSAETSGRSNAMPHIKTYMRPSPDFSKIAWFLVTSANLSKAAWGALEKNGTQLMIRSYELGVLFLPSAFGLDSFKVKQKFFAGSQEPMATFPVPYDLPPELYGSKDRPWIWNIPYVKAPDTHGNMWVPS
PROPERTY: IC50

Find the recorded IC50 belonging to `COc1cc(/C=C2\SC(=S)N(c3ccc([N+](=O)[O-])cc3)C2=O)cc(Br)c1O` and report it.
1.08 µM

###

target: UniProtKB Q9NUW8; test: Binding affinity to recombinant human Tdp1 (149 to 608 residues) expressed in Escherichia coli BL21 (DE3) by tryptophan fluorescence quenching assay
pKd: −log10 of the molar value.
Threshold rule: pKd greater than or equal to 5 is Criterion met; below that, Criterion not met.

// below: answered compounds
In [3]: df
Out[3]:
                        structure_as_smiles                cat
0  CC(=O)C1=C(O)C=C2Oc3c(-c4csc(N/N=C/c5cccc([N+](=O)[O-])c5)n4)c(O)c(C)c(O)c3[C@@]2(C)C1=O      Criterion met
1  CC(=O)C1=C(O)C=C2Oc3c(-c4csc(N/N=C/c5ccccc5)n4)c(O)c(C)c(O)c3[C@@]2(C)C1=O      Criterion met
2  COc1cc(/C=N/Nc2nc(-c3c(O)c(C)c(O)c4c3OC3=CC(O)=C(C(C)=O)C(=O)[C@@]34C)cs2)ccc1O  Criterion not met
3  CC(=O)C1=C(O)C=C2Oc3c(-c4csc(N/N=C/c5ccc(Br)cc5)n4)c(O)c(C)c(O)c3[C@@]2(C)C1=O      Criterion met
4  CC(=O)C1=C(O)C=C2Oc3c(-c4csc(N/N=C/c5ccc(F)cc5)n4)c(O)c(C)c(O)c3[C@@]2(C)C1=O  Criterion not met

I'd appreciate it if you could say whether `CC(=O)C1=C(O)C=C2Oc3c(-c4csc(N/N=C/c5ccc(O)cc5)n4)c(O)c(C)c(O)c3[C@@]2(C)C1=O` has pKd at least equal to 5.
Criterion not met

###

biological target: Tyrosyl-DNA phosphodiesterase 1 (Homo sapiens); test: Binding affinity to recombinant human Tdp1 (149 to 608 residues) expressed in Escherichia coli BL21 (DE3) by tryptophan fluorescence quenching assay
PROPERTY: pKd
Please report pKd as the negative decimal logarithm of the molar concentration, giving only the number.

For orientation, consider the following solved cases.
>>> print(df.to_string())
                        structure_as_smiles  property  meas_value
0  CC(=O)C1=C(O)C=C2Oc3c(-c4csc(N/N=C/c5ccc([N+](=O)[O-])cc5)n4)c(O)c(C)c(O)c3[C@@]2(C)C1=O       pKd        4.97
1  COc1ccc(/C=N/Nc2nc(-c3c(O)c(C)c(O)c4c3OC3=CC(O)=C(C(C)=O)C(=O)[C@@]34C)cs2)cc1       pKd        5.06

# evaluate next
Find the recorded pKd belonging to `CC(=O)C1=C(O)C=C2Oc3c(-c4csc(N/N=C/c5ccc(Cl)cc5)n4)c(O)c(C)c(O)c3[C@@]2(C)C1=O` and report it.
5.02
